The origin of these recorded values is patent US8410302B2.

- Tested on: Erysiphae graminis
- runDescription: Fungicidal activity against barley powdery mildew (BPM) disease, control value
- Type: in vivo
- setupConditions: 168 h; 2 ppm; read-out: BPM control value (C.V.)

compound	measurementTarget	measurementUnits	pest or weed control at 2 ppm
CNC(=O)/C(=N/OC)c1ccccc1COc1ccc(C=C(Br)Br)cc1Br	Erysiphae graminis	%	90
CNC(=O)/C(=N/OC)c1ccccc1COc1cc(Br)ccc1C=C(Br)Br	Erysiphae graminis	%	90
CNC(=O)/C(=N/OC)c1ccccc1COc1cccc(C=C(Br)Br)c1Cl	Erysiphae graminis	%	100
CNC(=O)/C(=N/OC)c1ccccc1COc1ccc(C=C(Br)Br)cc1C	Erysiphae graminis	%	97
CO/N=C(/C(=O)OC)c1ccccc1COc1ccc(C)cc1C=C(Br)Br	Erysiphae graminis	%	100
CO/N=C(/C(=O)OC)c1ccccc1COc1cc(Br)ccc1C=C(Cl)Cl	Erysiphae graminis	%	100
CNC(=O)/C(=N/OC)c1ccccc1COc1ccc(C)cc1C=C(Br)Br	Erysiphae graminis	%	100
CO/N=C(/C(=O)OC)c1ccccc1COc1ccc(C=C(Br)Br)cc1C	Erysiphae graminis	%	60
CO/N=C(/C(=O)OC)c1ccccc1COc1c(C)cccc1C=C(Br)Br	Erysiphae graminis	%	15
CCOc1cc(C=C(Cl)Cl)ccc1OCc1ccccc1/C(=N\OC)C(=O)OC	Erysiphae graminis	%	98
CO/N=C(/C(=O)OC)c1ccccc1COc1ccc(F)cc1C=C(Cl)Cl	Erysiphae graminis	%	100
CO/N=C(/C(=O)OC)c1ccccc1COc1ccc(C=C(Br)Br)cc1Cl	Erysiphae graminis	%	100
CCOc1cc(C=C(Br)Br)ccc1OCc1ccccc1/C(=N\OC)C(=O)OC	Erysiphae graminis	%	95
CNC(=O)/C(=N/OC)c1ccccc1COc1cc(C=C(Br)Br)ccc1OC	Erysiphae graminis	%	98
CO/N=C(/C(=O)OC)c1ccccc1COc1ccccc1C [Kresoxim-methyl, reference compound]	Erysiphae graminis	%	100
CNC(=O)/C(=N/OC)c1ccccc1COc1cc(Br)ccc1C=C(Cl)Cl	Erysiphae graminis	%	99
CO/N=C(/C(=O)OC)c1ccccc1COc1ccc(F)cc1C=C(Br)Br	Erysiphae graminis	%	90
CCOc1cc(C=C(Cl)Cl)ccc1OCc1ccccc1/C(=N\OC)C(=O)NC	Erysiphae graminis	%	95
CNC(=O)/C(=N/OC)c1ccccc1COc1c(C)cccc1C=C(Br)Br	Erysiphae graminis	%	92
CNC(=O)/C(=N/OC)c1ccccc1COc1ccc(F)cc1C=C(Cl)Cl	Erysiphae graminis	%	100
CO/N=C(/C(=O)OC)c1ccccc1COc1cccc(C=C(Br)Br)c1Cl	Erysiphae graminis	%	100
CO/N=C(/C(=O)OC)c1ccccc1COc1ccc(C=C(Cl)Cl)c(Cl)c1	Erysiphae graminis	%	100
CNC(=O)/C(=N/OC)c1ccccc1COc1ccc(C=C(Cl)Cl)c(Cl)c1	Erysiphae graminis	%	100
CO/N=C(/C(=O)OC)c1ccccc1COc1ccc(C=C(Br)Br)cc1Br	Erysiphae graminis	%	90
OC(c1ccc(Cl)cc1)(c1cncnc1)c1ccccc1Cl (centres unmarked) [Fenarimol, reference compound]	Erysiphae graminis	%	100
CNC(=O)/C(=N/OC)c1ccccc1COc1ccc(C=C(Br)Br)cc1Cl	Erysiphae graminis	%	97
CNC(=O)/C(=N/OC)c1ccccc1COc1ccc(F)cc1C=C(Br)Br	Erysiphae graminis	%	90
CCOc1cc(C=C(Br)Br)ccc1OCc1ccccc1/C(=N\OC)C(=O)NC	Erysiphae graminis	%	90
CO/N=C(/C(=O)OC)c1ccccc1COc1c(OC)ccc(C=C(Br)Br)c1Br	Erysiphae graminis	%	92
CO/N=C(/C(=O)OC)c1ccccc1COc1ccc(C=C(Br)Br)c(Cl)c1	Erysiphae graminis	%	98
CO/N=C(/C(=O)OC)c1ccccc1COc1ccc(C=C(Cl)Cl)cc1Br	Erysiphae graminis	%	100
CO/N=C(/C(=O)OC)c1ccccc1COc1cc(C=C(Br)Br)ccc1OC	Erysiphae graminis	%	95
CO/N=C(/C(=O)OC)c1ccccc1COc1cc(Br)ccc1C=C(Br)Br	Erysiphae graminis	%	25
CNC(=O)/C(=N/OC)c1ccccc1COc1ccc(C=C(Br)Br)c(Cl)c1	Erysiphae graminis	%	5
CNC(=O)/C(=N/OC)c1ccccc1COc1ccc(C=C(Cl)Cl)cc1Br	Erysiphae graminis	%	100

====

RCB control value (C.V.) listing for selected compounds.
- Test system: Pyricularia oryzae Carvara KA301
- runDescription: whole plant or invertebrate
- Type: in vivo
- setupConditions: 100 ppm, rice blast

compound	RCB control value (C.V.) [%]
CO/N=C(/C(=O)OC)c1ccccc1CON=C(C)c1ccc(C=C(Cl)Br)cc1 [Example 37]	100
CNC(=O)/C(=N/OC)c1ccccc1CON=C(C)c1ccc(C=C(Br)Br)cc1 [Example 26]	100
CO/N=C(/C(=O)OC)c1ccccc1CON=C(C)c1cccc(C=C(Cl)Cl)c1 [Example 19]	100
CNC(=O)/C(=N/OC)c1ccccc1CON=C(C)c1ccc(C=C(F)Cl)cc1 [Example 34]	95
CNC(=O)/C(=N/OC)c1ccccc1CON=C(C)c1ccc(C=C(Cl)Cl)cc1 [Example 22]	100
CNC(=O)/C(=N/OC)c1ccccc1CON=C(C)c1cccc(C=C(F)F)c1 [Example 28]	95
CO/N=C(/C(=O)OC)c1ccccc1CON=C(C)c1cccc(C=C(Br)Br)c1 [Example 23]	100
CO/N=C(/C(=O)OC)c1ccccc1CON=C(C)c1cccc(C=C(Cl)Br)c1 [Example 35]	100

====

pest or weed control at 10 ppm listing for selected compounds.
- Test system: Rhizoctonia solani AG-1
- runDescription: Fungicidal activity against rice sheath blight (RSB) disease, control value
- setupConditions: Rhizoctonia solani, AG1, in Oryza sativa, read-out: RSB control value (C.V.)
observationType: pest or weed control at 10 ppm

compound	observationType	result
CO/N=C(/C(=O)OC)c1ccccc1COc1c(C)cccc1C=C(Cl)Cl [Example 49]	pest or weed control at 10 ppm	98%
CNC(=O)/C(=N/OC)c1ccccc1COc1ccc(C=C(Cl)Cl)cc1Br [Example 54]	pest or weed control at 10 ppm	98%
CO/N=C(/C(=O)OC)c1ccccc1COc1cc(Br)ccc1C=C(Cl)Cl [Example 61]	pest or weed control at 10 ppm	100%
CO/N=C(/C(=O)OC)c1ccccc1COc1cc(C=C(Br)Br)ccc1OC [Example 71]	pest or weed control at 10 ppm	98%
CNC(=O)/C(=N/OC)c1ccccc1COc1cccc(C=C(Cl)Cl)c1Cl [Example 44]	pest or weed control at 10 ppm	100%
CNC(=O)/C(=N/OC)c1ccccc1COc1ccc(C=C(Cl)Cl)cc1 [Example 4]	pest or weed control at 10 ppm	98%
CNC(=O)/C(=N/OC)c1ccccc1COc1ccc(C)cc1C=C(Br)Br [Example 70]	pest or weed control at 10 ppm	100%
CO/N=C(/C(=O)OC)c1ccccc1COc1cccc(C=C(Br)Br)c1Cl [Example 67]	pest or weed control at 10 ppm	100%
CO/N=C(/C(=O)OC)c1ccccc1COc1ccc(C=C(Br)Br)cc1C [Example 65]	pest or weed control at 10 ppm	100%
CNC(=O)/C(=N/OC)c1ccccc1COc1ccc(C=C(Br)Br)cc1Br [Example 78]	pest or weed control at 10 ppm	98%
CNC(=O)/C(=N/OC)c1ccccc1COc1c(C)cccc1C=C(Cl)Cl [Example 50]	pest or weed control at 10 ppm	98%
CNC(=O)/C(=N/OC)c1ccccc1COc1ccc(C=C(Cl)Cl)c(Cl)c1 [Example 58]	pest or weed control at 10 ppm	100%
CCOc1cc(C=C(Cl)Cl)ccc1OCc1ccccc1/C(=N\OC)C(=O)NC [Example 60]	pest or weed control at 10 ppm	100%
CNC(=O)/C(=N/OC)c1ccccc1COc1ccc(C=C(Cl)Cl)cc1C [Example 42]	pest or weed control at 10 ppm	100%
CO/N=C(/C(=O)OC)c1ccccc1COc1ccc(C=C(Cl)Cl)cc1C [Example 41]	pest or weed control at 10 ppm	100%
CO/N=C(/C(=O)OC)c1ccccc1COc1ccc(C=C(Br)Br)c(Cl)c1 [Example 81]	pest or weed control at 10 ppm	98%
CNC(=O)/C(=N/OC)c1ccccc1COc1cc(Br)ccc1C=C(Br)Br [Example 86]	pest or weed control at 10 ppm	98%
CO/N=C(/C(=O)OC)c1ccccc1COc1ccc(C=C(Br)Br)cc1Br [Example 77]	pest or weed control at 10 ppm	98%

====

WLR control value (C.V.) listing for selected compounds.
- Test system: Puccinia recondita
- runDescription: Fungicidal activity against wheat leaf rust (WLR) disease, control value
- Type: in vivo
- setupConditions: 50 ppm, wheat leaf rust

lineNotation	WLR control value (C.V.)
CNC(=O)/C(=N/OC)c1ccccc1CON=C(C)c1cccc(C=C(Br)Br)c1	95%
CO/N=C(/C(=O)OC)c1ccccc1CON=C(C)c1ccc(C=C(F)F)cc1	100%
CNC(=O)/C(=N/OC)c1ccccc1CON=C(C)c1ccc(C=C(Cl)Cl)cc1	100%
CO/N=C(/C(=O)OC)c1ccccc1CON=C(C)c1cccc(C=C(Cl)Br)c1	100%
